Please provide measured pNF for the entries that follow.
API note: the answer field is a bare number with no unit suffix.

Query string: Fill in pNF for record CC[C@H]1OC(=O)C[C@@H](O)[C@H](C)[C@@H](O[C@@H]2O[C@H](C)C[C@H](N(C)C)[C@H]2O)[C@@H](CC=O)C[C@@H](C)C(=O)/C=C/[C@]2(C)O[C@H]2[C@@H]1C
Result string: 1.407

Query string: Fill in pNF for record CC[C@H]1OC(=O)CC(O)[C@H](C)[C@@H](O[C@@H]2O[C@H](C)C[C@H](N(C)C)[C@H]2O)[C@@H](CCNCCO)C[C@@H](C)C(=O)/C=C/C(C)=C/[C@@H]1C (some centres undefined)
Result string: 3.437

Query string: Fill in pNF for record CO[C@H]1C[C@H](O[C@H]2[C@H](C)[C@@H](O[C@@H]3O[C@H](C)C[C@H](N(C)C)[C@H]3O)[C@@H](C)CC3(CO3)C(=O)[C@H](C)[C@@H](O)[C@@H](C)[C@@H](C)OC(=O)[C@@H]2C)O[C@@H](C)[C@@H]1O (single isomer, unassigned)
Result string: 1.455

Query string: Fill in pNF for record CC[C@H]1OC(=O)[C@H](C)[C@@H](O[C@H]2C[C@@](C)(OC)[C@@H](O)[C@H](C)O2)[C@H](C)[C@@H](O[C@@H]2O[C@H](C)C[C@H](N(C)C)[C@H]2O)[C@](C)(O)C[C@@H](C)CN(C)[C@H](C)[C@@H](O)[C@]1(C)O
Result string: 3.41

Origin of measurements: ChEMBL document CHEMBL1130001
